target: UniProt P46098; test: Antagonist activity at human 5HT3A receptor expressed in HEK293 cells by FMP assay; type: functional, cell-based; conditions: read-out: IC50
Sequence (P46098 whole entry): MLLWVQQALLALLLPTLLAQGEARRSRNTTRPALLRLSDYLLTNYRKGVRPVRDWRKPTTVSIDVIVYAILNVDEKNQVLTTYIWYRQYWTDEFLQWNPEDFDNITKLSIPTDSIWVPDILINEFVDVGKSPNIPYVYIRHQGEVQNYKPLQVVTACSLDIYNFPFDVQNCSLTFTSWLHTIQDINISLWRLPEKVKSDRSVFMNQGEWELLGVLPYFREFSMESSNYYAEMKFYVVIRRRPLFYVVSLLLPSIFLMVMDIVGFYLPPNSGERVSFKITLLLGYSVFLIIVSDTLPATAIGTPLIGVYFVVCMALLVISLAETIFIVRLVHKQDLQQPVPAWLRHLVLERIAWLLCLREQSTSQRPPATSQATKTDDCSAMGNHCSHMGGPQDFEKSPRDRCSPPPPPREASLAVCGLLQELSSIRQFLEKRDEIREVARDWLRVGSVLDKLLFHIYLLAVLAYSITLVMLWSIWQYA

>  <MOLECULE>
C1=CC([N+]23CC[C@@H]4[C@@H]5[C@@H]6[C@@H](OCC=C(C2)[C@@H]6C[C@@H]43)N2c3ccccc3[C@@]34CC[N+]6(C7C=CCCC7)CC7=CCO[C@H]([C@@H]([C@H]23)[C@H]7C[C@@H]46)N5c2ccccc2)CCC1.[Br-].[Br-] (some centres undefined)

>  <UNIT_TEXT>
µM

>  <IC50>
4.4

$$$$
>  <MOLECULE>
C=CC[N+]12CC[C@@H]3[C@@H]4[C@@H]5[C@@H](OCC=C(C1)[C@@H]5C[C@@H]32)N1c2ccccc2[C@@]23CC[N+]5(CC=C)CC6=CCO[C@H]([C@@H]([C@H]12)[C@H]6C[C@@H]35)N4c1ccccc1.[Br-].[Br-] (some centres undefined)

>  <UNIT_TEXT>
µM

>  <IC50>
100

$$$$
>  <MOLECULE>
OC/C=C1/CN2CC[C@H]3[C@@H]2C[C@@H]1/C1=C/N2c4ccccc4[C@@]45CCN6CC7=CCO[C@H]([C@@H]([C@H]24)[C@H]7C[C@H]65)N(c2ccccc2)[C@@H]13

>  <UNIT_TEXT>
µM

>  <IC50>
2.5

$$$$
>  <MOLECULE>
COc1ccc(C[N+]23CC[C@@H]4[C@@H]5[C@@H]6[C@@H](OCC=C(C2)[C@@H]6C[C@@H]43)N2c3ccccc3[C@@]34CC[N+]6(Cc7ccc(OC)c(OC)c7)CC7=CCO[C@H]([C@@H]([C@H]23)[C@H]7C[C@@H]46)N5c2ccccc2)cc1OC.[Cl-].[Cl-] (some centres undefined)

>  <UNIT_TEXT>
µM

>  <IC50>
30

$$$$

---

biological target: Neuronal acetylcholine receptor subunit alpha-7 (Homo sapiens, UniProt P36544); assay: Displacement of [3H]methyllycaconitine from alpha7 nAChR in tsA201 cells co-expressed with Ric3; assay type: cell-based; conditions: read-out: pKi (converted)
Sequence (P36544 whole entry): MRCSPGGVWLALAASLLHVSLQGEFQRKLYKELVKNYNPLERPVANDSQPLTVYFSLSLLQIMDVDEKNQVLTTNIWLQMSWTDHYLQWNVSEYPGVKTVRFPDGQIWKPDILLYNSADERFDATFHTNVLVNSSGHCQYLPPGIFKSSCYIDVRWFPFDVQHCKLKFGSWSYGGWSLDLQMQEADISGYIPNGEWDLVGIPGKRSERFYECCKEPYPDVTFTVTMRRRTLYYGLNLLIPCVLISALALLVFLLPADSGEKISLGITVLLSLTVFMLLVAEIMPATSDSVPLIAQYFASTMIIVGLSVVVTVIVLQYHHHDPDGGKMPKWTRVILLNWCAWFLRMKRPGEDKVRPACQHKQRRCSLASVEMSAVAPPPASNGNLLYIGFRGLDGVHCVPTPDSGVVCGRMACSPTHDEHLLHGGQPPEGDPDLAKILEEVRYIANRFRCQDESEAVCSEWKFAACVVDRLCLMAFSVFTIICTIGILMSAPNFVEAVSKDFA
Below, each entry is listed alongside its reported Ki.
ASSAY_ENDPOINT: Ki (µM)

>  <COMPOUND>
C=CC[N+](C)(C)Cc1c2n(c3ccccc13)Cc1c(C[N+](C)(C)CC=C)c3ccccc3n1C2.[Br-].[Br-]

>  <TARGET_SYSTEM>
Neuronal acetylcholine receptor subunit alpha-7 (Homo sapiens, UniProt P36544)

>  <ASSAY_ENDPOINT>
Ki

>  <REPORTED_MEASUREMENT>
3.16

$$$$
>  <COMPOUND>
COc1ccc(C[N+]23CC[C@@H]4[C@@H]5[C@@H]6[C@@H](OCC=C(C2)[C@@H]6C[C@@H]43)N2c3ccccc3[C@@]34CC[N+]6(Cc7ccc(OC)c(OC)c7)CC7=CCO[C@H]([C@@H]([C@H]23)[C@H]7C[C@@H]46)N5c2ccccc2)cc1OC.[Cl-].[Cl-] (some centres not stated)

>  <TARGET_SYSTEM>
Neuronal acetylcholine receptor subunit alpha-7 (Homo sapiens, UniProt P36544)

>  <ASSAY_ENDPOINT>
Ki

>  <REPORTED_MEASUREMENT>
0.0631

$$$$

---

experiment: Displacement of [3H]methyllycaconitine from chimeric alpha-7nAChR W55A mutant /5HT3A receptor in tsA201 cells; format: cell-based, Homo sapiens
pKi: −log10 of the molar value.
ASSAY_ENDPOINT: pKi

>  <COMPOUND>
C[N+](C)(C)Cc1c2n(c3ccccc13)Cc1c(C[N+](C)(C)C)c3ccccc3n1C2.[I-].[I-]

>  <REPORTED_MEASUREMENT>
5.96

$$$$
>  <COMPOUND>
C[N+]12CC[C@@H]3[C@@H]4[C@@H]5[C@@H](OCC=C(C1)[C@@H]5C[C@@H]32)N1c2ccccc2[C@@]23CC[N+]5(C)CC6=CCO[C@H]([C@@H]([C@H]12)[C@H]6C[C@@H]35)N4c1ccccc1.[I-].[I-] (stereo partly specified)

>  <REPORTED_MEASUREMENT>
6.07

$$$$
>  <COMPOUND>
C[N+]12CC[C@@H]3[C@@H]4/C(=C\N5c6ccccc6[C@@]67CC[N+]8(C)CC9=CCO[C@H]([C@@H]([C@H]56)[C@H]9C[C@@H]78)N4c4ccccc4)[C@@H](C[C@@H]31)/C(=C\CO)C2.[I-].[I-] (stereo partly specified)

>  <REPORTED_MEASUREMENT>
5.51

$$$$
>  <COMPOUND>
CCN1C[C@]2(COC(=O)c3ccccc3N3C(=O)C[C@H](C)C3=O)CC[C@H](OC)[C@@]34[C@@H]5C[C@H]6[C@H](OC)[C@@H]5[C@](O)(C[C@@H]6OC)[C@](O)([C@@H](OC)[C@H]23)[C@@H]14 [METHYLLYCACONITINE]

>  <REPORTED_MEASUREMENT>
7.62

$$$$
>  <COMPOUND>
C1=CC([N+]23CC[C@@H]4[C@@H]5[C@@H]6[C@@H](OCC=C(C2)[C@@H]6C[C@@H]43)N2c3ccccc3[C@@]34CC[N+]6(C7C=CCCC7)CC7=CCO[C@H]([C@@H]([C@H]23)[C@H]7C[C@@H]46)N5c2ccccc2)CCC1.[Br-].[Br-] (stereo partly specified)

>  <REPORTED_MEASUREMENT>
5.92

$$$$
>  <COMPOUND>
O=[N+]([O-])c1ccc(C[N+]23CC[C@@H]4[C@@H]5[C@@H]6[C@@H](OCC=C(C2)[C@@H]6C[C@@H]43)N2c3ccccc3[C@@]34CC[N+]6(Cc7ccc([N+](=O)[O-])cc7)CC7=CCO[C@H]([C@@H]([C@H]23)[C@H]7C[C@@H]46)N5c2ccccc2)cc1.[Br-].[Br-] (stereo partly specified)

>  <REPORTED_MEASUREMENT>
6.89

$$$$
